Data origin, for the record: paper PMC11931385

Molecular target: T1, Rb^P S463L (human, UniProt P06400 380-788, S463L)
T1 construct: also called variant 10
T1 sequence (looked up): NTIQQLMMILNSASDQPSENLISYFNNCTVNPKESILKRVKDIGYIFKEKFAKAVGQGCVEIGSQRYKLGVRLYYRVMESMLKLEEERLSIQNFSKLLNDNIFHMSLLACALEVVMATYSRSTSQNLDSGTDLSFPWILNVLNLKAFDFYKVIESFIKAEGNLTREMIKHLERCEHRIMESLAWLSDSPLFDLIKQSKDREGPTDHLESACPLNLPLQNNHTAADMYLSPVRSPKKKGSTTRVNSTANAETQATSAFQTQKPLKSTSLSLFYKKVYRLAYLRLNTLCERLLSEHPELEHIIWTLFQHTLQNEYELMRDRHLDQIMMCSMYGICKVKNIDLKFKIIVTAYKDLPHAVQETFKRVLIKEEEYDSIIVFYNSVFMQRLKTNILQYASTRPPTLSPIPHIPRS
Test: fluorescence polarisation; 25 °C; unlabeled Rb^P titrated against 1.5 nM TMR-E2F1^TD or 7.5 nM TMR-E7^LxCxE; 25 mM Tris pH 8.0, 200 mM NaCl, 1 mM DTT, 0.1% Tween-20; 2 min incubation; quadratic fit; apparent Kd for the variants, Kd for WT
Conditions: both partners purified
No end group written: not given here. TMR = tetramethyl rhodamine dye
Readout label: pKd
pKd here is simply -log10 of the concentration when that concentration is written in mol/L.

[
  {
    "Binder": "{TMR}-GEGIRDLFDCDFGDLTPLD (also called E2F^TD; source: synthetic peptide, bought: GenScript) [TMR-E2F1^TD, peptide of the E2F1 transactivation domain]",
    "Number": 7.59
  }
]

Consider the additional binder presented here.
Prompt: Write down pKd measured for item DLYCYEQLN (also: TMR label, position not given here, source: synthetic peptide, bought: GenScript) [TMR-E7^LxCxE, LxCxE peptide of the E7 oncoprotein from HPV]
Response: 8.00
